Measured values drawn from ChEMBL document CHEMBL1201862 for this set.

# Test system: HL-60
# PROTOCOL: NCI tumour cell line growth inhibition, 48 h
Active and inactive are the calls of the source. No stated cut-off is given here; in the data, active = GI50 up to about 1.1 µM and inactive = higher.
Answer with one of the outcomes given here: active, inactive

The following compounds have reported results that may help.
CCCCCCCCCCCCCCCC[N+](C)(C)Cc1ccc(C[N+](C)(C)CCCCCCCCCCCCCCCC)cc1    inactive
CN1N=C2c3ccccc3OC(c3ccccc3)[C@H]2C1c1ccccc1 (stereo partly specified)    inactive
CCCS(=O)(=O)O    inactive

Which result was noted for this compound in the test: CCC(=O)N/S(=N/S(=O)(=O)c1ccccc1)C(Cl)(Cl)Cl (stereo unspecified) inactive

Dear all, I need the recorded test outcome for COc1ccc(/C=N/n2c(C)nc3c(sc(=S)n3-c3ccccc3)c2=O)cc1 , thank you. inactive

// return assay outcome for Oc1cccc2cc(Cl)cnc12 active

Assay outcome for C=C(C)C1CC=C(C)C(O)([C@@]2(O)C[C@H](C(=C)C)CC=C2C)C1 (stereo partly specified) : what was it? inactive

Which result was noted for this compound in the test: CC1=C(C(=O)Nc2ccccc2)C(c2ccc([N+](=O)[O-])cc2)C(C(=O)Nc2ccccc2)=C(C)N1 inactive

Entry O=c1c2nc3ccccc3c(=O)n2ncn1-c1ccccc1Cl : call = ? inactive

Assay result, entry CCCCN(CCCC)CC(C(=O)Nc1ccccc1)/C(C)=N\NC(=O)c1ccncc1 (stereo unspecified) — outcome? inactive

Can you look up the reported call for CCOc1ccccc1N1C(=O)C(=O)C(c2nc3ccccc3o2)C(=O)C1=O for me? inactive

----------
# Tested on: DU-145
# PROTOCOL: NCI tumour cell line growth inhibition, 48 h
Activity calls are given as the source filed them. Cut-off read from the data, not from the text of the source: active = GI50 up to about 1.1 µM and inactive = higher.
For each entry below, report its GI50 value.

CC1=CC2=C(OCO1)C(=O)c1ccccc1C2=O    2.16 µM (inactive)
CC(SC(=S)N1CCOCC1)C(=O)Nc1nnc(-c2ccc(Cl)cc2)o1 (stereo unspecified)    79.6 µM (inactive)
COc1ccc(-c2c3c(n(C4OC(CO)C(O)C(O)C4O)c(=S)c2C#N)CCC3)cc1 (stereo unspecified)    66.7 µM (inactive)
Nc1ccc(-c2nc3ccc(F)cc3s2)cc1Cl    > 100 µM (inactive)
Nc1n[nH]c(N)n1    5130 µM (inactive)
c1ccc2c(c1)Oc1cccc3cccc-2c13    > 100 µM (inactive)

Here are 5 compounds. What values of GI50 were reported for them?
1. OC(CCN1CCCCC1)(c1ccccc1)c1ccccc1
2. COC(=O)C1C2CC3C1C3C2C(=O)OC (stereo unspecified)
3. CCCCC1(N=[N+]=[N-])C(=O)c2cccc3c2N(CCC3)C1=O (stereo unspecified)
4. C(=N\OCCc1ccccc1)/c1cccnc1
5. CC(=O)OCC1OC(n2c(-c3ccccc3)c(C(C)=O)c(-c3ccc(Cl)cc3)c(C#N)c2=S)C(OC(C)=O)C(OC(C)=O)C1OC(C)=O (stereo unspecified)

1. > 100 µM (inactive)
2. > 100 µM (inactive)
3. > 100 µM (inactive)
4. > 100 µM (inactive)
5. > 100 µM (inactive)

----------
Give GI50 for every item shown.
# Test system: SF-295
# PROTOCOL: NCI tumour cell line growth inhibition, 48 h
Calls of active or inactive are those of the source. Rule as the data show it: active = GI50 up to about 1.1 µM and inactive = higher.

Answered examples (3):
CN1C(=O)CC(c2cccc(C3CC(=O)N(C)C3=O)n2)C1=O (stereo unspecified)    > 100 µM (inactive)
CCOC(=O)c1[nH]c(-c2[nH]c(-c3[nH]c(-c4[nH]c(C(=O)OCC)c(C)c4C(=O)OCC)c(C(=O)OCC)c3C)c(C)c2C(=O)OCC)c(C(=O)OCC)c1C    > 100 µM (inactive)
CC1=CC2=C(OCO1)C(=O)c1ccccc1C2=O    4.17 µM (inactive)

Go through the items and report each one's GI50.
1. Fc1ccc(Oc2nc3ccc(C(F)(F)F)cc3nc2-c2ccccc2)cc1
2. COc1cc2ccc(CC(N)=O)cc2cc1OC
3. COCCO [2-METHOXYETHANOL]
4. COc1ccccc1C(=O)NCC1CCCN2CCCCC12 (stereo unspecified)
5. COc1ccc(-n2c(=O)n(-c3ccccc3)c(=O)n2-c2ccc(OC)cc2)cc1
6. CC[C@](O)(C(=O)O)c1cc2n(c(=O)c1CO)Cc1cc3ccccc3nc1-2
7. COC1(OC)C2(Cl)CCC1(Cl)C(OC(C)=O)C2 (stereo unspecified)
8. CN(C)CCCN1CCC2(CCC(C(C)(C)C)CC2)CC1

37.7 µM (inactive)
> 100 µM (inactive)
> 100 µM (inactive)
1.24 µM (inactive)
> 100 µM (inactive)
0.025 µM (active)
> 100 µM (inactive)
2.03 µM (inactive)

List GI50 for every entry below, keeping the order given.
1. FC(F)(F)c1ccc2nc(Nc3ccc(Cl)c(Cl)c3)c(-c3ccccc3)nc2c1
2. CS[C@]12[C@@H]3C(=O)N(C)C(=O)[C@@H]3[C@](C)(C(=O)N1C)C(=O)N2c1ccccc1
3. C#CC(C)(C)OC(=O)C(=[N+]=[N-])C(C)=O
4. CCN1CCC(O)(/C=C/c2ccc(C)cc2)C(C(=O)/C=C/c2ccc(C)cc2)C1 (stereo unspecified)
5. O=c1oc2cc(O)ccc2c(O)c1C(c1ccccc1F)c1c(O)c2ccc(O)cc2oc1=O
6. COc1ccc(OC)c2c(=O)cc(-c3ccccc3)[nH]c12
7. COC1=CC(=O)c2ccc(C(C)C)cc2C1(C)C1=NC(C)(C)CO1 (stereo unspecified)
8. Oc1c2cccc1Cc1cccc3c1OCCOCCOCCOCCOc1c(cccc1Cc1cccc(c1O)C3)C2

18.7 µM (inactive)
> 100 µM (inactive)
> 10 µM (inactive)
10.6 µM (inactive)
> 100 µM (inactive)
> 100 µM (inactive)
> 100 µM (inactive)
9.29 µM (inactive)

Dear colleague, could you please provide GI50 for the molecules listed below?
1. COc1ccc(C(=O)/C=C/c2ccc(OCC(=O)N3CCN(c4ccccc4)CC3)cc2)cc1OC
2. O=C(O)c1ccc(NS(=O)(=O)Cc2ccccc2)cc1

1: 6.3 µM (inactive); 2: > 100 µM (inactive)
